system: Staphylococcus aureus CNCM 53154; experiment: Minimum bactericidal concentration, 30 min contact, strain 1; format: cell-based; conditions: CNCM53154, 0.5 h; Staphylococcus aureus CNCM 53154; contact time 30 minutes; solubilizing agent (water, TEG or acetone) given per product; read-out: MBC, strain 1
Measured parameter: MBC

>  <Compound>
OC(CSc1cccc(Br)c1)CN1CCC(Cc2ccccc2)CC1 (racemic)

>  <Result>
> 200 µg/mL

$$$$
>  <Compound>
CC1CCN(CC(O)COc2ccc(Br)cc2)CC1.Cl (stereo not shown) [Product A, reference compound]

>  <Result>
> 2000 µg/mL

$$$$
>  <Compound>
Cl.OC(COc1ccccc1)CN1CCC(c2ccccc2)CC1 (stereo not shown) [Product B, reference compound]

>  <Result>
> 1000 µg/mL

$$$$
>  <Compound>
OC(CSc1ccc(Cl)c(Cl)c1)CN1CCCC(Cc2ccccc2)C1 (single isomer, unassigned)

>  <Result>
> 200 µg/mL

$$$$

====

System: Pseudomonas aeruginosa CNCM A22
Assay: Minimum bactericidal concentration, 30 min contact, strain 3
Assay type: cell-based
Conditions: CNCMA22, 0.5 h; Pseudomonas aeruginosa CNCM A22; contact time 30 minutes; solubilizing agent given per product; read-out: MBC, strain 3
Description: A bacterial inoculum is brought into contact with different dilutions of the test product for a limited time of 30 minutes. […] After 24 hours of culture at 37° C., the microbial growth is harvested with the aid of glass beads and 10 ml of diluent containing 1 g of tryptone and 8.5 g of sodium chloride in 1000 ml of distilled water. The suspension formed is shaken and the percentage transmission of light at 620 nm is measured on a spectrophotometer: […]

>  <Molecule>
OC(COc1cccc2ccccc12)CN1CCC(Cc2ccc(Cl)cc2)CC1 (racemic)

>  <Units text>
µg/mL

>  <Modifier sign>
≤

>  <MBC>
10

$$$$
>  <Molecule>
Cl.OC(COc1ccc(Cl)cc1Cl)CN1CCC(Cc2ccccc2)CC1 (centres unmarked)

>  <Units text>
µg/mL

>  <Modifier sign>
=

>  <MBC>
50

$$$$
>  <Molecule>
OC(CSc1ccc(Cl)c(Cl)c1)CN1CCCC(Cc2ccccc2)C1 (single isomer, unassigned)

>  <Units text>
µg/mL

>  <Modifier sign>
=

>  <MBC>
50

$$$$
>  <Molecule>
OC(COc1ccc(Br)cc1)CN1CCC(Cc2ccccc2)CC1 (racemic)

>  <Units text>
µg/mL

>  <Modifier sign>
=

>  <MBC>
100

$$$$
>  <Molecule>
OC(COc1ccc(Cl)c(Cl)c1)CN1CCC(Cc2ccccc2)CC1 (racemic)

>  <Units text>
µg/mL

>  <Modifier sign>
=

>  <MBC>
50

$$$$
>  <Molecule>
OC(COc1cc(Br)c2ccccc2c1)CN1CCC(Cc2ccccc2)CC1 (racemic)

>  <Units text>
µg/mL

>  <Modifier sign>
=

>  <MBC>
10

$$$$
>  <Molecule>
OC(COc1ccc(Cl)cc1)CN1CCC(Cc2ccccc2)CC1 (racemic)

>  <Units text>
µg/mL

>  <Modifier sign>
=

>  <MBC>
100

$$$$
>  <Molecule>
OC(COc1ccc2ccccc2c1)CN1CCC(Cc2ccccc2)CC1 (racemic)

>  <Units text>
µg/mL

>  <Modifier sign>
=

>  <MBC>
200

$$$$
>  <Molecule>
OC(COc1ccccc1-c1ccccc1)CN1CCC(Cc2ccccc2)CC1 (racemic)

>  <Units text>
µg/mL

>  <Modifier sign>
=

>  <MBC>
10

$$$$
>  <Molecule>
OC(COc1ccc(F)cc1F)CN1CCC(Cc2ccccc2)CC1 (racemic)

>  <Units text>
µg/mL

>  <Modifier sign>
=

>  <MBC>
1000

$$$$
>  <Molecule>
OC(CSc1ccc(Cl)c(Cl)c1)CN1CCC(Cc2ccccc2)CC1 (racemic)

>  <Units text>
µg/mL

>  <Modifier sign>
=

>  <MBC>
50

$$$$
>  <Molecule>
Cl.OC(COc1ccc2ccccc2c1Br)CN1CCC(Cc2ccccc2)CC1 (centres unmarked)

>  <Units text>
µg/mL

>  <Modifier sign>
=

>  <MBC>
10

$$$$
>  <Molecule>
OC(COc1ccc(-c2ccccc2)cc1)CN1CCC(Cc2ccccc2)CC1 (racemic)

>  <Units text>
µg/mL

>  <Modifier sign>
=

>  <MBC>
50

$$$$
>  <Molecule>
Cl.OC(CSc1ccc(Br)cc1)CN1CCCCC1 (centres unmarked) [Product C, reference compound]

>  <Units text>
µg/mL

>  <Modifier sign>
>

>  <MBC>
1000

$$$$
>  <Molecule>
OC(CSc1ccc(Br)cc1)CN1CCC(Cc2ccc(Cl)cc2)CC1 (racemic)

>  <Units text>
µg/mL

>  <Modifier sign>
=

>  <MBC>
50

$$$$
>  <Molecule>
OC(CSc1cccc(Br)c1)CN1CCC(Cc2ccccc2)CC1 (racemic)

>  <Units text>
µg/mL

>  <Modifier sign>
=

>  <MBC>
50

$$$$
>  <Molecule>
Cl.OC(COc1ccccc1)CN1CCC(c2ccccc2)CC1 (centres unmarked) [Product B, reference compound]

>  <Units text>
µg/mL

>  <Modifier sign>
>

>  <MBC>
1000

$$$$
